Test system: Heat shock protein HSP 90 (rabbit reticulocyte lysate; luciferase refolding)
procedure_text: HSP90 inhibitors, primary screen, cell lysate, luminescence (AID 1789);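 also: 0% = DMSO wells and 100% = 60 µM geldanamycin wells; inhibitors lower the luminescence because luciferase stays unfolded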
setup_conditions: 3 h, at 5.6 µM, active compounds read high
Among all 290,000 compounds or so, about 2,700 (0.93%) were called active. Only a selection was taken, and actives are over-represented in it overall.
Attribute: inhibition
Dear colleague, please return just the value in %, with no unit written.

Here is how some compounds turned out for inhibition.
compound=COc1ccc(C)cc1NC(=O)CSc1ccc(Cl)cc1 readout_units=% val=1.35
compound=COCc1cc(=O)[nH]c2cc(NC(=O)C(F)(F)F)c(C)cc12 readout_units=% val=43.6
compound=Cc1csc(NC(=O)CSc2nc(=O)cc(N)n2-c2ccc(F)cc2)n1 readout_units=% val=-4.86
compound="CC(C)C[C@H](NC(=O)C1CC(=O)N(c2ccc3c(c2)OCCO3)C1)C(=O)NC1CCCC1 (stereo not given in full)" readout_units=% val=-1.77
compound=O=C(O)c1ccc(N/N=C/c2ccc3ncccc3c2)cc1 readout_units=% val=16.2
compound=CCn1cc(/C=C(\NC(=O)c2ccc(C)cc2)C(=O)NCCN2CCOCC2)c2ccccc21 readout_units=% val=3.27
compound=O=C(O)c1ccc(/C=N/Nc2nc(N3CCCCC3)nc(N3CCCCC3)n2)cc1 readout_units=% val=1.51
compound=COc1ccc(C(=S)Nc2ccccc2)cc1 readout_units=% val=-0.81
compound="COc1ccc(NC(=S)N2N=CCC2c2ccccc2)cc1 (stereo not given)" readout_units=% val=16.8
compound=COc1ccc(/C=C/c2noc(-c3ccccc3OC(C)=O)n2)cc1 readout_units=% val=24.5

Suppose we examine the compound `O=C(Nc1ccccc1)c1ccc(NC(=O)c2cccs2)cc1` ; what inhibition value has been reported?
1.79

Suppose we examine the compound `COc1cccc(/C=C/c2ccc3ccccc3n2)c1OC(C)=O` ; what inhibition value has been reported?
26.1

Suppose we examine the compound `CCN(CC)CCn1c(N)c(S(=O)(=O)c2ccccc2)c2nc3ccccc3nc21` ; what inhibition value has been reported?
22.7
